- Target System: Mas-related G-protein coupled receptor member X1 (Homo sapiens) (UniProt Q96LB2)
- Sequence (Q96LB2 whole entry, looked up): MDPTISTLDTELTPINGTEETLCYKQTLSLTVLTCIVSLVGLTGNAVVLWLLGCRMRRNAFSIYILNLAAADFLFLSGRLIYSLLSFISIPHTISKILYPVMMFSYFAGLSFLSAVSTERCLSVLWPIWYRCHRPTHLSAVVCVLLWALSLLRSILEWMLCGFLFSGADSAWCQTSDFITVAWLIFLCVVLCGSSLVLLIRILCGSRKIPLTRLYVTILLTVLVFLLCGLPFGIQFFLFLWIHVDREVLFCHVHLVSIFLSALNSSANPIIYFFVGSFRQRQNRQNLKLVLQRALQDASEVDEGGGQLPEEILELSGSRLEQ
- Assay: positive allosteric modulators of MrgX1, primary screen, HEK293 cells, Fluo-4 calcium flux (AID 588675);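 note: compound read alongside a low EC10 to EC30 dose of BAM8-22 agonist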
- Experimental Context: MrgX1-HEK293, Fluo-4 calcium flux, FDSS, at 10 µM
Among all 310,000 compounds or so, about 1,900 (0.61%) were called active.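 Rule for the calls: active = plate-corrected calcium response at least 3 library SD above typical, normal starting fluorescence, not activating the receptor alone; inactive = the rest.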 The list comes from a sample in which actives are over-represented; it also holds close analogues and randomly drawn compounds.
Answer with one of the outcomes active, inactive

Molecule | Target System | Cat
N#C/C=C(/c1ccc(F)cc1)N1CCOCC1 | Mas-related G-protein coupled receptor member X1 (Homo sapiens) (UniProt Q96LB2) | inactive
COc1ccc(OC)c(-c2c(=O)n(OCc3ccccc3Br)c3ccccc3[n+]2[O-])c1 | Mas-related G-protein coupled receptor member X1 (Homo sapiens) (UniProt Q96LB2) | inactive
O=C(NNC(=O)c1cc2c(s1)CCCC2)c1ccccc1 | Mas-related G-protein coupled receptor member X1 (Homo sapiens) (UniProt Q96LB2) | active
O=C1CCC(Cc2ccccc2)N1 (stereo not given) | Mas-related G-protein coupled receptor member X1 (Homo sapiens) (UniProt Q96LB2) | inactive
COc1cccc(Cn2cnc3c([N+](=O)[O-])c(C)c(C)cc32)c1 | Mas-related G-protein coupled receptor member X1 (Homo sapiens) (UniProt Q96LB2) | inactive

Ask: Per the assay record, what outcome was assigned to O=C(Nc1sc2c(c1C(=O)O)CCC2)c1ccccc1F ?
Result: inactive

Ask: Per the assay record, what outcome was assigned to CN1C(C)(C)CC(NC(=O)CCC(=O)NC2CC(C)(C)N(C)C(C)(C)C2)CC1(C)C ?
Result: inactive

Ask: Per the assay record, what outcome was assigned to CC(=O)Nc1ccc(S(=O)(=O)N(C)c2nc3ccccc3nc2Cl)cc1 ?
Result: inactive

Ask: Per the assay record, what outcome was assigned to COc1cccc(NC(=O)CSc2nnc(Cc3ccc(OC)c(OC)c3)o2)c1 ?
Result: active

Ask: Per the assay record, what outcome was assigned to Cc1cccc(NC(=O)C(C)SCc2ccccc2)c1 (stereo not given) ?
Result: inactive

Ask: Per the assay record, what outcome was assigned to COc1ccc(CCNC(=S)NC(=O)/C=C/c2ccc(C)cc2)cc1OC ?
Result: inactive

Ask: Per the assay record, what outcome was assigned to COc1ccccc1-n1nnnc1S(=O)(=O)Cc1ccc(Cl)cc1 ?
Result: inactive

Ask: Per the assay record, what outcome was assigned to Cc1cc(Nc2ccc(Br)cc2)nc2ccccc12 ?
Result: inactive

Ask: Per the assay record, what outcome was assigned to COc1ccc(CCNS(=O)(=O)c2cccc3cccnc23)cc1OC ?
Result: inactive

Ask: Per the assay record, what outcome was assigned to COc1ccc(-c2nc3cc([N+](=O)[O-])ccc3o2)cc1OC ?
Result: active

* * *

- Target System: Mas-related G-protein coupled receptor member X1 (Homo sapiens)
- Assay: positive allosteric modulators of MrgX1, primary screen, HEK293 cells, Fluo-4 calcium flux (AID 588675);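 note: compound read alongside a low EC10 to EC30 dose of BAM8-22 agonist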
- Experimental Context: MrgX1-HEK293, Fluo-4 calcium flux, FDSS, at 10 µM
The whole screen tested about 310,000 compounds, of which about 1,900 (0.61%) were called active.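 Rule for the calls: active = plate-corrected calcium response at least 3 library SD above typical, normal starting fluorescence, not activating the receptor alone; inactive = the rest.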 The entries come from a sample that favours actives as a whole.
Answer with one of the outcomes active, inactive

Ask: Per the assay record, what outcome was assigned to Cc1ccc(-c2cc(C(=O)N/N=C/C=C/c3ccccc3)n[nH]2)o1 ?
Result: inactive

Ask: Per the assay record, what outcome was assigned to Cc1cc(C(=O)N2CCC(C(=O)O)CC2)c(C(F)(F)F)o1 ?
Result: inactive

Ask: Per the assay record, what outcome was assigned to CN(C)CCCCCN(C)Cc1cc2ccccc2o1 ?
Result: inactive

Ask: Per the assay record, what outcome was assigned to COc1cc(OC)c(-n2cc(-c3ccc(Cl)cc3)[nH]c2=O)cc1Cl ?
Result: inactive

Ask: Per the assay record, what outcome was assigned to COc1cc(C(F)(F)F)nc2c(Br)c(C(C)(C)C)nn12 ?
Result: active

Ask: Per the assay record, what outcome was assigned to CCC(=O)Nc1nc(C)c(C(=O)Nc2cccc(Cl)c2)s1 ?
Result: inactive

Ask: Per the assay record, what outcome was assigned to O=C(c1noc2c1CCCC2)N1CCc2ccccc2C1 ?
Result: inactive

Ask: Per the assay record, what outcome was assigned to Cc1ccccc1-n1c(C)cc(/C=C2\NC(=O)NC2=O)c1C ?
Result: inactive

Ask: Per the assay record, what outcome was assigned to COc1ccc(CCNc2nc3ccc(C)cc3n3cnnc23)cc1OC ?
Result: inactive

Ask: Per the assay record, what outcome was assigned to COc1ccc(C2(C)NC(=O)N(CC(=O)c3ccc4c(c3)OCO4)C2=O)cc1 (stereo not given) ?
Result: inactive

Ask: Per the assay record, what outcome was assigned to COc1ccc(C2c3[nH]c4ccccc4c3CCN2CCCn2cccn2)cc1C (stereo not given) ?
Result: inactive

Ask: Per the assay record, what outcome was assigned to COc1ccc(C(=O)C2CCCN(C(=O)c3cc4nc(C)cc(C)n4n3)C2)cc1F (stereo not given) ?
Result: inactive

Ask: Per the assay record, what outcome was assigned to O=C(NC(=S)NC1CCCCC1)c1ccc(Cl)cc1 ?
Result: inactive

Ask: Per the assay record, what outcome was assigned to COc1ccc(N(CC(=O)N/N=C/c2cccc3c2OCCO3)S(=O)(=O)c2ccc(NC(C)=O)cc2)cc1 ?
Result: inactive

Ask: Per the assay record, what outcome was assigned to COC1(C2=NCCN2)COc2ccccc2O1 (stereo not given) ?
Result: inactive
